System: Human immunodeficiency virus 1
Experiment: Effective concentration required to inhibit cytopathicity of HIV-1(IIIB) in MT-4 cells
Format: functional, organism-based
Details: Human immunodeficiency virus 1, MT4
pEC50: −log10 of the molar value.
measured_endpoint: pEC50

> print(dat)
                               smiles.record                             tgt  measured.endpoint  test.value
 1  C#CCCCC=C(c1cc(Cl)c(OC)c(C(=O)OC)c1)c1cc(Cl)c(OC)c(C(=O)OC)c1  Human immunodeficiency virus 1              pEC50        5.96
 2  COC(=O)CCCC=C(c1cc(C)c(OC)c(C(=O)OC)c1)c1cc(C)c(OC)c(C(=O)OC)c1  Human immunodeficiency virus 1              pEC50        6.00
 3  CCCOC(=O)CCCC=C(c1cc(Br)c(OC)c(C(=O)OC)c1)c1cc(Br)c(OC)c(C(=O)OC)c1  Human immunodeficiency virus 1              pEC50        5.66
 4  COC(=O)CCCC=C(c1cc(Br)c(OC)c(C(=O)OC)c1)c1cc(Br)c(OC)c(C(=O)OC)c1  Human immunodeficiency virus 1              pEC50        6.52
 5  CCCOC(=O)CCCC=C(c1cc(C)c(OC)c(C(=O)OC)c1)c1cc(C)c(OC)c(C(=O)OC)c1  Human immunodeficiency virus 1              pEC50        5.46
 6  COC(=O)CCCC=C(c1cc(Cl)c(OC)c(C(=O)SC)c1)c1cc(Cl)c(OC)c(C(=O)SC)c1  Human immunodeficiency virus 1              pEC50        5.74
 7  COC(=O)CCCC=C(c1cc(C#N)c(OC)c(C(=O)OC)c1)c1cc(C#N)c(OC)c(C(=O)OC)c1  Human immunodeficiency virus 1              pEC50        6.10
 8  CCOC(=O)c1cc(C(=CCCCC(=O)OC)c2cc(C)c(OCC)c(C(=O)OCC)c2)cc(C)c1OCC  Human immunodeficiency virus 1              pEC50        4.85
 9  COC(=O)CCCC=C(c1cc(Cl)c(OC)c(C(=O)OC)c1)c1cc(Cl)c(OC)c(C(=O)OC)c1  Human immunodeficiency virus 1              pEC50        6.22
10  C#CCCCC=C(c1cc(Br)c(OC)c(C(=O)OC)c1)c1cc(Br)c(OC)c(C(=O)OC)c1  Human immunodeficiency virus 1              pEC50        6.15
11  COC(=O)c1cc(C(=CCCCc2ccccc2)c2cc(Br)c(OC)c(C(=O)OC)c2)cc(Br)c1OC  Human immunodeficiency virus 1              pEC50        5.59
12  CCCOC(=O)CCCC=C(c1cc(Cl)c(OC)c(C(=O)OC)c1)c1cc(Cl)c(OC)c(C(=O)OC)c1  Human immunodeficiency virus 1              pEC50        5.51
13  C=CCCCC=C(c1cc(Br)c(OC)c(C(=O)OC)c1)c1cc(Br)c(OC)c(C(=O)OC)c1  Human immunodeficiency virus 1              pEC50        5.52
14  C=CCCCC=C(c1cc(Cl)c(OC)c(C(=O)OC)c1)c1cc(Cl)c(OC)c(C(=O)OC)c1  Human immunodeficiency virus 1              pEC50        5.43
15  COC(=O)c1cc(C(=CCCCc2ccccc2)c2cc(Cl)c(OC)c(C(=O)OC)c2)cc(Cl)c1OC  Human immunodeficiency virus 1              pEC50        4.88
16  COC(=O)c1cc(C(=CCCCC(=O)OC(C)C)c2cc(C)c(OC)c(C(=O)OC)c2)cc(C)c1OC  Human immunodeficiency virus 1              pEC50        5.46
17  COC(=O)CCC/C=C(\c1cc(C)c(OC)c(C(=O)OC)c1)c1cc(Cl)c(OC)c(C(=O)OC)c1  Human immunodeficiency virus 1              pEC50        6.10
18  CCOc1c(C)cc(C(=CCCCC(=O)OC)c2cc(C)c(OCC)c(C(=O)OC)c2)cc1C(=O)OC  Human immunodeficiency virus 1              pEC50        5.43
19  COC(=S)CCCC=C(c1cc(Cl)c(OC)c(C(=S)OC)c1)c1cc(Cl)c(OC)c(C(=S)OC)c1  Human immunodeficiency virus 1              pEC50        4.45
20  COC(=O)c1cc(C(=CCCCC(=O)OC(C)C)c2cc(Br)c(OC)c(C(=O)OC)c2)cc(Br)c1OC  Human immunodeficiency virus 1              pEC50        5.57
